assay: chemical genetic growth profiling, strain panel (AID 1159580);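 further: tested at 20 µM; growth read once vehicle control cultures reached saturation at 30 °C; 1 = growth at the plate median or of vehicle wells; lower values mean less growth of the strain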; conditions: S. cerevisiae deletion strains, growth OD, locus YHR030C, strain SLT2
Screen size: about 5,500 compounds; about 2,000 (36%) were called active. Roughly 18% stayed inconclusive and do not appear here. No stated cut-off is given here; in the data, active means normalized growth mostly below about 0.91 (no sharp cut-off); inconclusive means no clear call, values can overlap the other calls; inactive means mostly above about 0.92. The list shows a part of the results.
Hi! Could you answer with just one of these? active, inactive

Study these solved cases before continuing.
COMPOUND	GROUP
COc1ccc(N=C2SCC(c3ccc(C)cc3)=NN2CCO)cc1	inactive
NC[C@H]1O[C@H](OC2[C@@H](N)C[C@@H](N)[C@H](O[C@H]3O[C@H](CO)[C@@H](O)[C@H](N)[C@H]3O)[C@H]2O)[C@H](O)[C@@H](O)[C@@H]1O (some centres not stated)	inactive
CC(=O)O[C@@H]1CC2C(C)(CC[C@H](O)C2(C)C)C2CC[C@]3(C)C(=CC(=O)O[C@H]3c3ccoc3)C21C (some centres not stated)	inactive

**Q:** Recorded call for CC(C)Nc1nc(Cl)nc(NC(C)C)n1 ?
**A:** inactive

**Q:** Each compound tested received a call. Report the one for CC(=O)O[C@@H]1c2c(ccc3ccc(=O)oc23)OC(C)(C)[C@@H]1OC(=O)CC(C)C .
**A:** inactive

**Q:** Hi, do you know how C/C=C(/C)C(=O)O[C@@H]1Cc2c(ccc3ccc(=O)oc23)OC1(C)C came out in this test?
**A:** inactive

**Q:** Please let me know the test result on file for Clc1ccc2ocnc2c1 .
**A:** inactive

**Q:** Test call for this compound, please: CC(C)c1cccc(O)c(=O)c1
**A:** active

**Q:** Could you please tell me the result logged for CN1c2ccccc2C(=O)/C(=N/Nc2ccccc2F)S1(=O)=O in this assay?
**A:** inactive

* * *

experiment: chemical genetic growth profiling, strain panel (AID 1159580); settings: S. cerevisiae deletion strains, growth OD, locus YHR079C, strain IRE1 (second series), hits give low values
In all, about 5,500 compounds went through this assay and about 2,000 (36%) were called active. Inconclusive results (about 18%) are left out. This is one part of the list.
EXPERIMENTAL_ENDPOINT: normalized growth
Lab note: write the figure by itself, no unit.

Solved cases below.
COMPOUND	RECORDED_VALUE
NS(=O)(=O)c1cc2c(cc1C(F)(F)F)NC(Cc1ccccc1)NS2(=O)=O (stereo unspecified)	1.01
O=C(CCCN1CCC(O)(c2ccc(Cl)cc2)CC1)c1ccc(F)cc1	0.928
COc1ccc(-c2cc(=O)c3c(O)cc(O)cc3o2)cc1	0.971
C/C=C(\C)C(=O)O[C@@H]1c2c(ccc3ccc(=O)oc23)OC(C)(C)[C@@H]1OC(C)=O	0.998
C[N+]1(C)C[C@H](O)[C@H](C(=O)[O-])C1	1
CCCc1nn(C)c2c(=O)[nH]c(-c3cc(S(=O)(=O)N4CCN(C)CC4)ccc3OCC)nc12	0.991
CCC(=O)OCC(=O)C1(OC(=O)CC)C(C)CC2C3CCC4=CC(=O)C=CC4(C)C3(Cl)C(O)CC21C (stereo unspecified)	0.985
CC[C@H]1CN2CCC1C[C@@H]2[C@@H](O)c1ccnc2ccc(OC)cc12 (stereo partly specified)	1.01

**Q:** Consider the compound O=C(O)CN(CCN(CC(=O)O)CC(=O)O)CC(=O)O . State its measured normalized growth.
**A:** 0.991

**Q:** Hello, please tell me recorded normalized growth for this one: C/C=C(/C)C(=O)O[C@@H]1Cc2c(ccc3ccc(=O)oc23)OC1(C)C
**A:** 0.987

**Q:** For CC1(C)S[C@@H]2C(N3C(=O)[C@@H](c4ccccc4)NC3(C)C)C(=O)N2[C@H]1C(=O)O (stereo partly specified) , write its normalized growth.
**A:** 1.02

**Q:** In one line, give reported normalized growth of the entry COc1ccc(-c2cc(=O)c3c(O)c(OC)c(O[C@H]4O[C@H](CO[C@@H]5O[C@@H](C)[C@H](O)[C@@H](O)[C@H]5O)[C@@H](O)[C@H](O)[C@H]4O)cc3o2)cc1 .
**A:** 1.01

**Q:** Respond only with normalized growth recorded for CCC(=O)OCC(=O)[C@@]1(OC(=O)CC)[C@@H](C)CC2C3CCC4=CC(=O)C=C[C@]4(C)C3(F)[C@@H](O)C[C@@]21C (stereo partly specified)
**A:** 0.974

* * *

experiment: chemical genetic growth profiling, strain panel (AID 1159580);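 further: tested at 20 µM; growth read once vehicle control cultures reached saturation at 30 °C; 1 = growth at the plate median or of vehicle wells; lower values mean less growth of the strain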; settings: S. cerevisiae deletion strains, growth OD, locus YLR262C, strain YPT6, hits give low values
In all, about 5,500 compounds went through this assay and about 2,000 (36%) were called active. About 18% were inconclusive and are not listed. Some of the results follow.
normalized growth values, listed per item
Lab note: record the figure alone, no unit after it.

Look over these answered cases.
>>> df
                                   compound  recorded_value
0     COc1cc(O)c2c(=O)cc(-c3ccc(O)cc3)oc2c1            1.07
1  CC1(C)S[C@@H]2[C@H](NC(=O)[C@@H](N)c3ccc(O)cc3)C(=O)N2[C@H]1C(=O)O            1.09
2  CCCCCC(O)C1C(=O)OC(C)C(O)/C=C/C=C/C=C/C=C/C=C(\C)C(O)CC(O)CC(O)CC(O)CC(O)CC(O)CC1O (stereo not given)            1.09

Turning now to a further record.
**Q:** Find the measured normalized growth of COc1ccc(-c2cc(=O)c3c(O)cc(O)cc3o2)cc1 and report it.
**A:** 0.92

* * *

Some compounds, each annotated with its measured normalized growth.
assay: chemical genetic growth profiling, strain panel (AID 1159580);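 further: tested at 20 µM; growth read once vehicle control cultures reached saturation at 30 °C; 1 = growth at the plate median or of vehicle wells; lower values mean less growth of the strain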; conditions: S. cerevisiae deletion strains, growth OD, locus YFR028C, strain CDC14, hits give low values
Among all 5,500 compounds or so, about 2,000 (36%) were called active. Another 18% or so got no clear call; they are omitted. The list shows a part of the results.
Please give the numeric answer without any surrounding text.

Study these solved cases before continuing.
In [3]: df
Out[3]:
                                   compound  recorded_value
0  FC(F)(F)Oc1ccc(OCc2n[nH]c(=S)n2-c2ccc(Cl)cc2)cc1           0.989
1  N#Cc1ccc2[nH]cc(CCN(Cc3ccccc3)Cc3ccccc3)c2c1           0.982
2                   CCCCCCCCCCCCSc1ncn[nH]1           0.977
3  N/C(=N/OC(=O)c1cnn(-c2ccc([N+](=O)[O-])cc2)c1C(F)(F)F)c1ccc(Cl)cc1           0.979
4  O=C(O/N=C1/CCCc2[nH]c3ccccc3c21)C1CCCCC1           0.975
5  CC1(C)C=Cc2cc(/C(N)=N\OC(=O)Nc3cccc(C(F)(F)F)c3)ccc2O1           0.978
6  COc1ccccc1N1CCN(C(=O)C(C)c2ccc(CC(C)C)cc2)CC1 (stereo not given)           0.986
7  FC(F)(F)Sc1ccc(OCc2n[nH]c(=S)n2-c2ccccc2)cc1           0.993
8  O=C(O/N=C1/CCCc2[nH]c3ccccc3c21)c1ccc(Cl)cc1Cl           0.977

Next item in the queue.
**Q:** Identify measured normalized growth corresponding to O=C(Nc1cc2ccccc2s1)N1CCN(Cc2c(F)cccc2Cl)CC1
**A:** 0.988

* * *

assay: chemical genetic growth profiling, strain panel (AID 1159580);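 further: tested at 20 µM; growth read once vehicle control cultures reached saturation at 30 °C; 1 = growth at the plate median or of vehicle wells; lower values mean less growth of the strain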; settings: S. cerevisiae deletion strains, growth OD, locus YNL224C, strain SQS1, hits give low values
Out of some 5,500 compounds screened, about 2,000 (36%) were called active. Inconclusive results (about 18%) are left out. The list shows a part of the results.
Listed below: normalized growth values for each entry.
Reply with just the number.

Known normalized growth results, listed for orientation:
In [3]: df
Out[3]:
                                   compound  recorded_value
0  CC(=O)O[C@]1(C(C)=O)CC[C@H]2[C@@H]3C=C(Cl)C4=CC(=O)[C@@H]5C[C@@H]5[C@]4(C)[C@H]3CC[C@@]21C           0.975
1  N#CC(=C(\N)Sc1ccccc1N)/C(C#N)=C(/N)Sc1ccccc1N           0.973
2  O=C(O)CN(CCOCCOCCN(CC(=O)O)CC(=O)O)CC(=O)O           0.992

**Q:** Given the compound OC[C@H]1O[C@@H](n2cnc3c(NC4CCCC4)ncnc32)C(O)[C@H]1O (stereo not given in full) , write its reported normalized growth.
**A:** 1

**Q:** Supply recorded normalized growth for O=C(O)C1=CC(=C(c2ccc(O)c(C(=O)O)c2)c2ccc(O)c(C(=O)O)c2)C=CC1=O here.
**A:** 1.03

**Q:** Fill in reported normalized growth for this entry: NC(=O)c1cc(N2CC2)c([N+](=O)[O-])cc1[N+](=O)[O-]
**A:** 0.997

**Q:** Indicate its recorded normalized growth; the compound in question is CC(C)c1cccc(C(C)C)c1O
**A:** 1.02

**Q:** Annotate the compound O=C(O)CCc1nc(-c2ccccc2)c(-c2ccccc2)o1 with its measured normalized growth.
**A:** 0.977

**Q:** For O=C(O)CN(CCN(CC(=O)O)CC(=O)O)CCN(CC(=O)O)CC(=O)O , write its normalized growth.
**A:** 1

**Q:** Please indicate normalized growth recorded for CCn1nc(C(=O)O)c(=O)c2cc3c(cc21)OCO3
**A:** 0.99
